The reported measurements were obtained from patent US20260193326A1.

# target of assay: T1, AAV8 (adeno-associated virus serotype 8)
# T1 construct: also called adeno-associated virus serotype 8
# assay notes: SPR, AAV on CM5 chip;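 further: surface plasmon resonance with AAV amine-coupled to the chip as ligand, nanobodies injected as analyte over a concentration series, rate constants and affinity fitted from binding curves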
Group membership follows koff per the scheme bottom end: < 0.0002 s⁻¹; midrange: ≥ 0.0002 s⁻¹ and < 0.001 s⁻¹; top end: ≥ 0.001 s⁻¹

Task: Which class does A4-101 (VHH) VHH: VQLQESGGGLVQPGGSLRLSCAASGSRFSINIMGWYRQAPGKQRELVASVTRGGTTNYADSVKGRFTISRDNPKNTIYLQMNSLRPEDTAVYYCHVDEIRESTWTTSNLWGQGTQVTVSS fall in?
Output: top end

Task: Which class does A4-109 (VHH) VHH: VQLQESGGGLVQAGGSLRLSCAASGTIFSLNVMGWYRQAPGKQRELVASVTRGGNTNYADSVKGRFTISRDNAKTTVYLQMNSLRPEDTAVYYCHVDELRDSTWTTSNLWGQGTQVTVSS fall in?
Output: midrange

Task: Which class does A4-103 (VHH) VHH: VQLQESGGGLVQPGGSLRLSCAASGSIFSLNAMGWYRQAPGKQRELVATITRGGSTNYADSVKGRFTISRDNAKNTVYLQMNSLRPEDTAVYYCHVDEVRESIWTTSNLWGQGTQVTVSS fall in?
Output: top end

Task: Which class does A4-113 (VHH) VHH: VQLQESGGGLVQTGGSLRLSCVASGSRFSINTVGWYRQAPGKQRELVATVTRGGSTWYAGSVKGRFTISRDNTKNTIYLQMNSLRPEDTAVYYCHVDEIRQSTWTTSNLWGQGTQVTVSS fall in?
Output: bottom end

Task: Which class does A4-104 (VHH) VHH: VQLQESGGGLVQPGGSLRLSCAASGSIFSLNSMGWYRQAPGKQRELVATITSGGSTNYAGSVKGRFTISRDNAKNTVYLQMNNLQPEDTAVYYCHVDEVRESSWTTSNLWGQGTQVTVSS fall in?
Output: bottom end

Task: Which class does A4-102 (VHH) VHH: VQLQESGGGLVQPGGSLRLSCAASGSHFTINSVGWYRQAPGKQRELVAPVTRGGTTNYADFVKGRFTISRDNAKNTVYLQMNSLRPEDTAVYYCHVDELRDSSWTTSNLWGQGTQVTVSS fall in?
Output: midrange

Task: Which class does A4-110 (VHH) VHH: VQLQESGGGLVQPGGSLRLSCFASGTNFSINVVGWYRQAPGKQRELVATITRGGSTNYAESVKGRFTISRDNAKNTVYLQMNNLRPEDTAVYYCHLDEVRDSSWTTSNLWGQGTQVTVSS fall in?
Output: top end

Task: Which class does A4-108 (VHH) VHH: VQLQESGGGLAQPGGSLRLSCLASGSGFSINTMGWYRQAPPKWRELVATVTRGGSTNYAGSVKGRFTISRDNPKNTVYLQMNSLRPEDTAVYYCHLDEVRQSTWTTSNIWGQGTQVTVSS fall in?
Output: midrange

Task: Which class does A4-111 (VHH) VHH: VQLQESGGGLAQPGGSLRLSCAASGSNFSINTMGWYRQRAGKQREFVATITRGGSTNYGDSVKGRFTISRDNAKTTVYLQMNSLRPEDTAVYYCHLDEVRESTWTTSNLWGQGTQVTVSS fall in?
Output: bottom end

Task: Which class does A4-106 (VHH) VHH: VQLQESGGGLVQPGGSLRLSCIASGSIFSLNAMGWYRQAPGKQRELVATITSGGSTNYADSVKGRFTISRDNAKNTAYLQMNNLQPEDTAVYYCHVDEVRESIWTTSNLWGQGTQVTVSS fall in?
Output: top end

Task: Which class does A4-112 (VHH) VHH: VQLQESGGGLVQTGGSLRLSCIASGSIFSINTVGWYRQAPPKQRELVATVTRAGSTWYAGSVKGRFTISRDNAKNTIYLQMNTLRPEDTAVYYCHVDEVRQSTWTTSNIWGQGTQVTVSS fall in?
Output: midrange

Task: Which class does A4-114 (VHH) VHH: VQLQESGGGLVQTGGSLRLSCVASGSIFSINTVGWYRQAPGKQRELVATVTRAGSTWYAGSVKGRFTISRDNTKNTIYLQMNSLRPEDTAVYYCHVDELRQSTWTTSNLWGQGTQVTVSS fall in?
Output: bottom end

Task: Which class does A4-105 (VHH) VHH: VQLQESGGGLVQPGGSLRLSCAASGSIFSLNAMGWYRQAPGKQRELVATITSGGSTNYADSVKGRFTISRDNAKNTAYLQMNNLQPEDTAVYYCHVDEVRESIWTTSNLWGQGTQVTVSS fall in?
Output: top end
